// provenance: ChEMBL document CHEMBL3885881

species on record: Rattus norvegicus; test: DrugMatrix - Regimen: Daily Repeat; type: toxicity, organism-based, Sprague-Dawley; parameters: regimen Daily Repeat, gender Male, age 6-8 weeks; details: in vivo, po, 0 mg/kg, 120 h, tissue Plasma, route oral GAVAGE, dose level Control, time 5 day, vehicle .5 % CMC
property: CHLORIDE (MEQ/L)
Provide the reading as a plain figure in MEQ/L.

The examples below pair each entry with its known result.
{"columns": ["molecule", "scale-unit", "CHLORIDE"],
 "data": [
  ["CC(C(=O)O)c1ccc2oc(-c3ccc(Cl)cc3)nc2c1 (centres undefined) [BENOXAPROFEN]", "MEQ/L", 103],
  ["C[C@H]1O[C@@H](n2cc(F)c(=O)[nH]c2=O)[C@H](O)[C@@H]1O [DOXIFLURIDINE]", "MEQ/L", 101.5],
  ["NC1CCN(c2nc3c(cc2F)c(=O)c(C(=O)O)cn3-c2ccc(F)cc2F)C1 (centres undefined) [TOSUFLOXACIN]", "MEQ/L", 108.17],
  ["CCN(CC)CCOc1ccc(/C(=C(/Cl)c2ccccc2)c2ccccc2)cc1 [ENCLOMIPHENE]", "MEQ/L", 101],
  ["Clc1ccccc1CN1CCc2sccc2C1 [TICLOPIDINE]", "MEQ/L", 108]
]}

Determine its reported CHLORIDE: COc1cc2nc(N3CCN(C(=O)c4ccco4)CC3)nc(N)c2cc1OC [PRAZOSIN]
101

Read off the recorded CHLORIDE for O=C1C(CC[S+]([O-])c2ccccc2)C(=O)N(c2ccccc2)N1c1ccccc1 (centres undefined) [SULFINPYRAZONE]
101

Supply recorded CHLORIDE for NCCCC(O)(P(=O)(O)O)P(=O)(O)O [ALENDRONIC ACID] here.
108

Given the molecule CN/C(=N/CCSCc1nc[nH]c1C)NC#N [CIMETIDINE] , write its reported CHLORIDE.
101.5

----------
species on record: Rattus norvegicus; assay: DrugMatrix - Regimen: Daily Repeat; type: toxicity, organism-based, Sprague-Dawley; design: regimen Daily Repeat, gender Male, age 6-8 weeks; settings: in vivo, sc, 0 mg/kg, 120 h, tissue Plasma, route subcutaneous, dose level Control, time 5 day, […]
property: TOTAL BILIRUBIN (mg/dL)
All answers are understood in mg/dL, so give the number only.

Past entries and their recorded results:
{"columns": ["molecule", "measured"],
 "data": [
  ["Oc1c(Cl)cc(Cl)c(Cl)c1Cc1c(O)c(Cl)cc(Cl)c1Cl [HEXACHLOROPHENE]", 0.2],
  ["O=C(Nc1ccc(Br)cc1)c1cc(Br)cc(Br)c1O [TRIBROMSALAN]", 0.25],
  ["CCC(=O)O[C@]1(C(=O)CCl)[C@@H](C)C[C@H]2[C@@H]3CCC4=CC(=O)C=C[C@]4(C)[C@@]3(F)[C@@H](O)C[C@@]21C [CLOBETASOL PROPIONATE]", 0.25],
  ["CCN(CC)CCOCCC1=CCC2CC1C2(C)C (stereo not given) [MYRTECAINE]", 0.22]
]}

Below: the item to evaluate.
Look up and state reported TOTAL BILIRUBIN for CC(C)(C)CC(C)(C)c1ccc(OCCOCC[N+](C)(C)Cc2ccccc2)cc1.[Cl-] [BENZETHONIUM CHLORIDE]
0.2
